Study Target: human GPR18 (Homo sapiens, UniProt Q14330)
Sequence (Q14330 whole entry): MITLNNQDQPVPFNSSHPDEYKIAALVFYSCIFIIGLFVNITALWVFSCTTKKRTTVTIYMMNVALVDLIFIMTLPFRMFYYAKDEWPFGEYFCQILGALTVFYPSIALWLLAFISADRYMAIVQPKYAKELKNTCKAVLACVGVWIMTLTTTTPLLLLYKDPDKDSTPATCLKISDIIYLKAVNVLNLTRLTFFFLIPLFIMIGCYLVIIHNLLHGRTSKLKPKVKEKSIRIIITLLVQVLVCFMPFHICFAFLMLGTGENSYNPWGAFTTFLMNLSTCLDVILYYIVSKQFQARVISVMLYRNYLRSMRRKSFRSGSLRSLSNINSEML
Assay Procedure: cell-based
Condition Context: GPR18 IC50, β-arrestin recruitment, antagonist mode vs. Δ9-THC (10 µM)
pIC50: −log10 of the molar value.
Measured Parameter: pIC50

compound="CCCCCc1ccc(O)c(-c2ccccc2O)c1 [Compound 48]" measured_parameter=pIC50 qualifier_sign=< recorded_measurement=5.00
compound="CCCCCCc1ccc(O)c(-c2cc(CCC)ccc2OC)c1 [Compound 61a]" measured_parameter=pIC50 qualifier_sign=< recorded_measurement=5.00
compound="CCCCCc1ccc(O)c(-c2cc(CCCCC)ccc2O)c1 [Compound 44]" measured_parameter=pIC50 qualifier_sign== recorded_measurement=4.92
compound="CCCCCCc1ccc(O)c(-c2cc(CCCCCC)ccc2O)c1 [Compound 45]" measured_parameter=pIC50 qualifier_sign== recorded_measurement=4.93
compound="CCCCCCc1ccc(O)c(-c2cc(C)ccc2O)c1 [Compound 53]" measured_parameter=pIC50 qualifier_sign== recorded_measurement=4.94
compound="Cc1ccc(O)c(-c2cc(C)ccc2O)c1 [Compound 41]" measured_parameter=pIC50 qualifier_sign=< recorded_measurement=5.00
compound="CCCCCCC(C)(C)c1ccc(C2CC(O)CCC2CCCO)c(O)c1 (single isomer, unassigned; (-)) [Compound 4, reference compound]" measured_parameter=pIC50 qualifier_sign== recorded_measurement=5.22
compound="CCCCCc1ccc(O)c(-c2cc(CCC)ccc2O)c1 [Compound 60, 5-Pentyl-5′-propylbiphenyl-2,2′-diol]" measured_parameter=pIC50 qualifier_sign== recorded_measurement=4.84
compound="CCCc1ccc(O)c(-c2ccccc2O)c1 [Compound 46]" measured_parameter=pIC50 qualifier_sign=< recorded_measurement=5.00
compound="CCCCCc1ccc(O)c(-c2cc(CC)ccc2O)c1 [Compound 56]" measured_parameter=pIC50 qualifier_sign== recorded_measurement=4.87
compound="CCCCCCCc1ccc(O)c(-c2cc(CCC)ccc2O)c1 [Compound 62]" measured_parameter=pIC50 qualifier_sign== recorded_measurement=4.97
compound="C=CCc1ccc(O)c(-c2cc(CC=C)ccc2O)c1 [Compound 9, reference compound]" measured_parameter=pIC50 qualifier_sign=< recorded_measurement=5.00

---

Listing: pIC50 of selected compounds
Study Target: human GPR18 (Homo sapiens, UniProt Q14330)
Assay Procedure: cell-based
Condition Context: GPR18 IC50, β-arrestin recruitment, antagonist mode vs. Δ9-THC (10 µM)
pIC50: −log10 of the molar value.
Measured Parameter: pIC50

compound=CCc1ccc(O)c(-c2cc(CC)ccc2O)c1 study_target="human GPR18 (Homo sapiens, UniProt Q14330)" measured_parameter=pIC50 qualifier_sign=< recorded_measurement=5.00
compound=CCCCCc1ccc(O)c(-c2cc(CCCC)ccc2O)c1 study_target="human GPR18 (Homo sapiens, UniProt Q14330)" measured_parameter=pIC50 qualifier_sign== recorded_measurement=4.86
compound=CCCc1ccc(O)c(-c2cc(CC)ccc2O)c1 study_target="human GPR18 (Homo sapiens, UniProt Q14330)" measured_parameter=pIC50 qualifier_sign== recorded_measurement=4.98
compound="CCCCCc1cc(O)c2c(c1)OC(C)(C)[C@@H]1CCC(C)=C[C@@H]21 [Compound 1, Δ^9-tetrahydrocannabinol, reference compound]" study_target="human GPR18 (Homo sapiens, UniProt Q14330)" measured_parameter=pIC50 qualifier_sign=< recorded_measurement=5.00
compound=CCCCCCc1ccc(O)c(-c2cc(CCCC)ccc2O)c1 study_target="human GPR18 (Homo sapiens, UniProt Q14330)" measured_parameter=pIC50 qualifier_sign== recorded_measurement=4.96
compound=CCCCCCc1ccc(O)c(-c2cc(CC)ccc2O)c1 study_target="human GPR18 (Homo sapiens, UniProt Q14330)" measured_parameter=pIC50 qualifier_sign== recorded_measurement=4.90
compound=CCCc1ccc(O)c(-c2cc(C)ccc2O)c1 study_target="human GPR18 (Homo sapiens, UniProt Q14330)" measured_parameter=pIC50 qualifier_sign=< recorded_measurement=5.00
compound=CCCCCCCCc1ccc(O)c(-c2cc(CCC)ccc2O)c1 study_target="human GPR18 (Homo sapiens, UniProt Q14330)" measured_parameter=pIC50 qualifier_sign== recorded_measurement=4.97
compound="CCCCCCc1ccc(OC)c(-c2cc(CCC)ccc2O)c1 [Compound 61b]" study_target="human GPR18 (Homo sapiens, UniProt Q14330)" measured_parameter=pIC50 qualifier_sign=< recorded_measurement=5.00
compound=CCCCc1ccc(O)c(-c2cc(CCC)ccc2O)c1 study_target="human GPR18 (Homo sapiens, UniProt Q14330)" measured_parameter=pIC50 qualifier_sign== recorded_measurement=4.87
compound=CCCCc1ccc(O)c(-c2cc(CCCC)ccc2O)c1 study_target="human GPR18 (Homo sapiens, UniProt Q14330)" measured_parameter=pIC50 qualifier_sign== recorded_measurement=4.92
compound="C=CCc1ccc(O)c(-c2ccc(OC)c(CC=C)c2)c1 [Compound 11, 4′-O-Methylhonokiol, reference compound]" study_target="human GPR18 (Homo sapiens, UniProt Q14330)" measured_parameter=pIC50 qualifier_sign=< recorded_measurement=5.00
compound="CCCc1ccc(O)c(-c2cc(CCC)ccc2O)c1 [Compound 12, tetrahydromagnolol]" study_target="human GPR18 (Homo sapiens, UniProt Q14330)" measured_parameter=pIC50 qualifier_sign== recorded_measurement=4.51
compound=CCCCc1ccc(O)c(-c2ccccc2O)c1 study_target="human GPR18 (Homo sapiens, UniProt Q14330)" measured_parameter=pIC50 qualifier_sign=< recorded_measurement=5.00
compound="COc1ccc(-c2oc3cc(OC)ccc3c2C(=O)c2ccc(C#N)cc2)cc1 [Compound 6, reference compound]" study_target="human GPR18 (Homo sapiens, UniProt Q14330)" measured_parameter=pIC50 qualifier_sign== recorded_measurement=5.30

---

This document collects log10(Ki) values reported for human CB1 receptor (Homo sapiens, UniProt P21554).
Measured Parameter: log10(Ki) (log10 of the value in nM)

molecule=CCCCCCc1ccc(O)c(-c2cc(C)ccc2O)c1 study_target="human CB1 receptor (Homo sapiens, UniProt P21554)" recorded_measurement=2.91
molecule=CCCCCCc1ccc(O)c(-c2cc(CC)ccc2O)c1 study_target="human CB1 receptor (Homo sapiens, UniProt P21554)" recorded_measurement=2.59
molecule=CCCCCCc1ccc(O)c(-c2cc(CCC)ccc2O)c1 study_target="human CB1 receptor (Homo sapiens, UniProt P21554)" recorded_measurement=2.16
molecule="CCCc1ccc(O)c(-c2cc(CCC)ccc2OC)c1 [Compound 12a, methoxytetrahydromagnolol]" study_target="human CB1 receptor (Homo sapiens, UniProt P21554)" recorded_measurement=2.43
molecule=CCCCc1ccc(O)c(-c2cc(CCC)ccc2O)c1 study_target="human CB1 receptor (Homo sapiens, UniProt P21554)" recorded_measurement=3.56
molecule=CCc1ccc(O)c(-c2cc(CC)ccc2O)c1 study_target="human CB1 receptor (Homo sapiens, UniProt P21554)" recorded_measurement=3.33
molecule=CCCCc1ccc(O)c(-c2cc(CC)ccc2O)c1 study_target="human CB1 receptor (Homo sapiens, UniProt P21554)" recorded_measurement=3.76
molecule=CCCCCCCCc1ccc(O)c(-c2cc(CCC)ccc2O)c1 study_target="human CB1 receptor (Homo sapiens, UniProt P21554)" recorded_measurement=3.22
molecule="CCCCCCc1ccc(O)c(-c2cc(CCC)ccc2OC)c1 [Compound 61a]" study_target="human CB1 receptor (Homo sapiens, UniProt P21554)" recorded_measurement=0.98
molecule=CCCCCCc1ccc(O)c(-c2ccccc2O)c1 study_target="human CB1 receptor (Homo sapiens, UniProt P21554)" recorded_measurement=3.82
molecule=CCCCCc1ccc(O)c(-c2cc(C)ccc2O)c1 study_target="human CB1 receptor (Homo sapiens, UniProt P21554)" recorded_measurement=3.09
molecule=CCCCCc1ccc(O)c(-c2cc(CCC)ccc2O)c1 study_target="human CB1 receptor (Homo sapiens, UniProt P21554)" recorded_measurement=2.56
molecule=CCCc1ccc(O)c(-c2cc(C(C)(C)C)ccc2O)c1 study_target="human CB1 receptor (Homo sapiens, UniProt P21554)" recorded_measurement=3.76
molecule=CCCCCc1ccc(O)c(-c2cc(CCCC)ccc2O)c1 study_target="human CB1 receptor (Homo sapiens, UniProt P21554)" recorded_measurement=3.56
molecule="CCCCCc1ccc(O)c(-c2cc(CCC)ccc2OC)c1 [Compound 60a]" study_target="human CB1 receptor (Homo sapiens, UniProt P21554)" recorded_measurement=1.24
molecule=CCCCCc1ccc(O)c(-c2cc(CC)ccc2O)c1 study_target="human CB1 receptor (Homo sapiens, UniProt P21554)" recorded_measurement=2.80

---

Study Target: human GPR55 (Homo sapiens, UniProt Q9Y2T6)
Sequence (Q9Y2T6 whole entry): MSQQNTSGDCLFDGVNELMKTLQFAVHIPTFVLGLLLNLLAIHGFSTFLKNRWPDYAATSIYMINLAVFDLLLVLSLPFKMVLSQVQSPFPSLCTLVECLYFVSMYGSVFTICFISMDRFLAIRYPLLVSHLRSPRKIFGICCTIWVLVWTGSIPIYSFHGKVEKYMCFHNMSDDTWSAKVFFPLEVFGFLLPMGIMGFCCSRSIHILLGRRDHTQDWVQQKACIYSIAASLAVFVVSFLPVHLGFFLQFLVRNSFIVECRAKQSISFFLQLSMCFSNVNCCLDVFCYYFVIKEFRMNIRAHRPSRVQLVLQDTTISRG
Assay Procedure: β-arrestin recruitment assay (PathHunter), CHO cells expressing GPR55
Condition Context: test compound 10 µM, related to effect of LPI 1 µM = 100%
Measured Parameter: agonist effect on β-arrestin recruitment at GPR55 (%)

molecule="CCCCCCc1ccc(O)c(-c2cc(CCC)ccc2OC)c1 [Compound 61a]" recorded_measurement=0
molecule=Cc1ccc(O)c(-c2cc(C)ccc2O)c1 recorded_measurement=30
molecule=CCCCCCc1ccc(O)c(-c2cc(CCCCCC)ccc2O)c1 recorded_measurement=0
molecule=CCCCCCCc1ccc(O)c(-c2cc(CCC)ccc2O)c1 recorded_measurement=5
molecule=CCCCCCc1ccc(O)c(-c2cc(C)ccc2O)c1 recorded_measurement=28
molecule="CCCc1ccc(O)c(-c2cc(CCC)ccc2O)c1 [Compound 12, tetrahydromagnolol]" recorded_measurement=24
molecule=CCCCCc1ccc(O)c(-c2cc(CCCCC)ccc2O)c1 recorded_measurement=26
molecule=CCCCCc1ccc(O)c(-c2cc(CCCC)ccc2O)c1 recorded_measurement=15
molecule="CCCc1ccc(O)c(-c2cc(CCC)ccc2OC)c1 [Compound 12a, methoxytetrahydromagnolol]" recorded_measurement=0
molecule=CCCc1ccc(O)c(-c2cc(C)ccc2O)c1 recorded_measurement=26

Provenance of the data: paper PMC3813752
